Test system: Escherichia coli TOP10
Assay Comment: shrunken log2 fold change of peptide-encoding DNA abundance (4.5 h post-induction vs induction); higher = less antimicrobial activity (less host growth inhibition)
Experimental Context: time post-induction: 4.5 h; library: site-saturation at positions 5, 18, 19, 20
Decision: shrunken log2 fold change >= -0.02 yields Fulfilled, all other cases yield Not fulfilled.

Query string: # check: shrunken log2 fold change of `RRIRGRPPRLPRPRPRPPVNPRP` is greater than or equal to -0.02
Result string: Fulfilled

Query string: Ok, now `RRIRHRPPRLPRPRPRPGRPPRP`
Result string: Fulfilled

Query string: Now the sequence `RRIRIRPPRLPRPRPRPIECPRP`
Result string: Not fulfilled

Query string: Now the sequence `RRIRWRPPRLPRPRPRPMFYPRP`
Result string: Not fulfilled

Query string: Another sequence to look at: `RRIRSRPPRLPRPRPRPHPDPRP`
Result string: Fulfilled

Query string: Another: `RRIRHRPPRLPRPRPRPDQRPRP`
Result string: Fulfilled

Query string: Note, next up: `RRIRPRPPRLPRPRPRPGMWPRP`
Result string: Fulfilled

Query string: Please give the result for `RRIRIRPPRLPRPRPRPMSGPRP` too.
Result string: Fulfilled

Query string: Also `RRIRCRPPRLPRPRPRPCGQPRP` ?
Result string: Fulfilled

Query string: Can you check `RRIRLRPPRLPRPRPRPKDPPRP` next?
Result string: Not fulfilled

Query string: And then `RRIRFRPPRLPRPRPRPDQEPRP` , what is it?
Result string: Fulfilled

Query string: Record: `RRIRWRPPRLPRPRPRPSSAPRP`
Result string: Fulfilled

Query string: What do we get for `RRIRVRPPRLPRPRPRPEMVPRP` ?
Result string: Not fulfilled

Query string: Same question, `RRIRGRPPRLPRPRPRPTHAPRP` this time
Result string: Fulfilled

Query string: What do we get for `RRIRLRPPRLPRPRPRPDCLPRP` ?
Result string: Not fulfilled

Query string: Would you mind doing `RRIRPRPPRLPRPRPRPDSAPRP` as well?
Result string: Not fulfilled

Query string: What do you have for `RRIRYRPPRLPRPRPRPIGAPRP` ?
Result string: Not fulfilled

Query string: Another: `RRIRNRPPRLPRPRPRPEARPRP`
Result string: Not fulfilled

----------
Test system: Escherichia coli TOP10
Assay Comment: shrunken log2 fold change of peptide-encoding DNA abundance (4.5 h post-induction vs induction); higher = less antimicrobial activity (less host growth inhibition)
Experimental Context: time post-induction: 4.5 h; library: site-saturation at positions 5, 18, 19, 20
Give rule met when the value for shrunken log2 fold change is at least -0.09. Give rule not met when it is less.

Query string: State whether the measured shrunken log2 fold change reaches -0.09, counting equality as reaching it, for `RRIRHRPPRLPRPRPRPKRTPRP`
Result string: rule met

Query string: Follow-up entry: `RRIRYRPPRLPRPRPRPMNWPRP`
Result string: rule not met

Query string: // next record `RRIRSRPPRLPRPRPRPPNAPRP`
Result string: rule met

Query string: Proceed to `RRIRQRPPRLPRPRPRPKYVPRP`
Result string: rule met

Query string: Now the same for `RRIRSRPPRLPRPRPRPNHLPRP`
Result string: rule not met

----------
Test system: Escherichia coli TOP10;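 further: peptides expressed intracellularly from a pBAD plasmid library in pooled LB shake-flask culture, induced with 0.3% L-arabinose, DNA abundance read by NGS, three biological replicates, DESeq2 with apeglm shrinkage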
Assay Comment: shrunken log2 fold change of peptide-encoding DNA abundance (4.5 h post-induction vs induction); higher = less antimicrobial activity (less host growth inhibition)
Experimental Context: time post-induction: 4.5 h; library: site-saturation at positions 5, 18, 19, 20
Assign class by shrunken log2 fold change: not lower than 0.1 means label 1; lower than 0.1 means label 0.

Query string: Check if shrunken log2 fold change >= 0.1 (inclusive). Item: `RRIRERPPRLPRPRPRPKIWPRP`
Result string: label 0

Query string: Same question, `RRIRKRPPRLPRPRPRPMCKPRP` this time
Result string: label 0

Query string: What do you have for `RRIRKRPPRLPRPRPRPPNVPRP` ?
Result string: label 1

Query string: Another: `RRIRSRPPRLPRPRPRPELVPRP`
Result string: label 1

Query string: What do you have for `RRIRTRPPRLPRPRPRPDVFPRP` ?
Result string: label 0

Query string: Now the same for `RRIRARPPRLPRPRPRPLMKPRP`
Result string: label 1

Where do these numbers come from? They come from the supplement of paper PMC9112550.
